Please go through the items and note down their pKd.
molecular target: T1, human Tim-3 expressed on the cell surface (human, UniProt Q8TDQ0 22-301); assay: flow cytometry, activated human CD4+ T cells
T1 construct: also called hTim-3; Human Tim-3 (CHO)
Numbers only, as −log10 of the molar value.

Kindly give each listed record's pKd.
1. h22E11-VK4-1 × h22E11-VH3-23 (antibody, V domains shown, Humanized m22E11) VH: EVQLLESGGGLVQPGGSLRLSCAVSGFSLTSYGVHWVRQAPGKGLEWLVVIWSDGSTTYNDSVKGRFTISKDNSKNTVYLQMNSLRAEDTAVYYCARQGGYRYDDAMDYWGQGTLVTVSS VL: DIVLTQSPDSLAVSLGERATINCKASQSVDYDGNSYVNWYQQKPGQPPKLLIYAASNLESGVPDRFSGSGSGTDFTLTISSLQAEDVAVYYCQQSNEDPYTFGQGTKVEIK
2. h22E11-VK1-39 × h22E11-VH1-69 (antibody, V domains shown, Humanized m22E11) VH: QVQLVQSGAEVKKPGSSVKVSCKVSGFSLTSYGVHWVRQAPGQGLEWLVVIWSDGSTTYNQKFQGRVTITKDESTSTVYMELSSLRSEDTAVYYCARQGGYRYDDAMDYWGQGTLVTVSS VL: DIQLTQSPSSLSASVGDRVTITCKASQSVDYDGNSYVNWYQQKPGKAPKLLIYAASNLESGVPSRFSGSGSGTDFTLTISSLQPEDFATYYCQQSNEDPYTFGQGTKVEIK
3. h22E11-VK3-11 × h22E11-VH5-51 (antibody, V domains shown, Humanized m22E11) VH: EVQLVQSGAEVKKPGESLKISCKVSGFSLTSYGVHWVRQMPGKGLEWLVVIWSDGSTTYNPSFQGQVTISKDKSISTVYLQWSSLKASDTAMYYCARQGGYRYDDAMDYWGQGTLVTVSS VL: EIVLTQSPATLSLSPGERATLSCKASQSVDYDGNSYVNWYQQKPGQAPRLLIYAASNLESGIPARFSGSGSGTDFTLTISSLEPEDFAVYYCQQSNEDPYTFGQGTKVEIK

OUT:
[9.05, 8.59, 9.22]
